Hi there, I'd appreciate the recorded IC50 for every entry that follows.
- Target under test: Kras and SOS1 (biotin-tagged human Kras loaded with GDP, His-tagged human SOS1) (Homo sapiens, UniProt P01116, G12D)
- Construct: made in house; host or cells: E. coli (stated for Kras only)
- Sequence (P01116 1-188 isoform P01116-2 G12D): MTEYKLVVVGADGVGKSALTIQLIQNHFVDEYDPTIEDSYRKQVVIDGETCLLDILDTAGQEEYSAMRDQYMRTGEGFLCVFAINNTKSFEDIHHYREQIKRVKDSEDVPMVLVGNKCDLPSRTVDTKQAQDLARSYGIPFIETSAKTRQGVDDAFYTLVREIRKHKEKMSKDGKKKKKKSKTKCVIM
- Method: Protein-protein interaction inhibition between Kras and SOS1 (KrasGl2D-SOS PPI) using AlphaScreen
- Assay type: binding
- Recorded conditions: AlphaScreen; biotin-tagged human Kras loaded with GDP, His-tagged human SOS1; read-out: KRAS G12D-SOS PPI IC50
Starred links: 1 amine or outer side, 2 acyl side, 3 side chain; linkers in the order of their positions; H or OH if unused. Positions of bridges follow the written chain, without caps; N, C: chain ends. Non-standard residues stand in square brackets, D forms with d. Residues, ends and D or L forms follow the SMILES beside them. *: point of attachment. hPhe(3,5-F2-4-CF3) = N[C@@H](CCc1cc(F)c(C(F)(F)F)c(F)c1)C(=O)O; hPhe(3-Cl-4-CF3) = N[C@@H](CCc1ccc(C(F)(F)F)c(Cl)c1)C(=O)O; hPhe(3-F,4-CF3) = N[C@@H](CCc1ccc(C(F)(F)F)c(F)c1)C(=O)O; NMePhe(4-Cl) = CN[C@@H](Cc1ccc(Cl)cc1)C(=O)O; NMePhe(4-Me) = CN[C@@H](Cc1ccc(C)cc1)C(=O)O; NMedβ3hAla = C[C@H](CC(=O)[*:2])N(C)[*:1]; X32 = O=C(CN(CCN1CCC(F)(F)CC1)[*:1])[*:2]; Phe(3-Cl) = N[C@@H](Cc1cccc(Cl)c1)C(=O)O; Morpholine(3S-CO) = O=C(O)[C@@H]1COCCN1; Phe(3-Me) = Cc1cccc(C[C@H](N)C(=O)O)c1; NMeCha = CN[C@@H](CC1CCCCC1)C(=O)O; NMehLeu = CN[C@@H](CCC(C)C)C(=O)O; NMeCba = CN[C@@H](CC1CCC1)C(=O)O; NMeChg = CN[C@H](C(=O)O)C1CCCCC1; NMeF = CN[C@@H](Cc1ccccc1)C(=O)O; NMeI = CC[C@H](C)[C@H](NC)C(=O)O; dNMeF = CN[C@H](Cc1ccccc1)C(=O)O; NMeD = CN[C@@H](CC(=O)O)C(=O)O; CH2CONHtBu = CC(C)(C)NC(=O)C*; NMeL = CN[C@@H](CC(C)C)C(=O)O; NMeV = CN[C@H](C(=O)O)C(C)C; d(β3hA) = C[C@@H](N)CC(=O)O; NMeS = CN[C@@H](CO)C(=O)O; NMeA = CN[C@@H](C)C(=O)O; Piperidide = C1CCN(*)CC1; Pyrrolidide = C1CCN(*)C1; Ac5c = NC1(C(=O)O)CCCC1; Aze = O=C(O)[C@@H]1CCN1; Aib = CC(C)(N)C(=O)O; Isopentyl = CC(C)CC*; NEtG = CCNCC(=O)O; Sar = CNCC(=O)O
Answers are plain numbers, in nM.

# example entries with known answers
Compound: CC[C@H](C)[C@@H]1NC(=O)[C@H](CC(C)C)N(C)C(=O)C[C@@H](C)NC(=O)[C@H](C(C)C)N(C)C(=O)C2(CCCC2)NC(=O)[C@@H]2CCCN2C(=O)[C@H](CCc2ccc(C(F)(F)F)c(Cl)c2)NC(=O)CN(C)C(=O)[C@H](CC2CCCCC2)N(C)C(=O)CN(C)C(=O)CN(CCN2CCC(F)(F)CC2)C1=O [Compound 635] (cyclo([Ac5c][NMeV][d(β3hA)][NMeL]I[X32][Sar][NMeCha][Sar][hPhe(3-Cl-4-CF3)]P))
Units: nM
Readout number: 190

Compound: CC[C@H](C)[C@@H]1NC(=O)[C@H](CC(C)C)N(C)C(=O)C[C@@H](C)N(C)C(=O)[C@H](C(C)C)N(C)C(=O)C2(CCCC2)NC(=O)[C@@H]2CCCN2C(=O)[C@H](CCc2ccc(C(F)(F)F)c(F)c2)NC(=O)CN(C)C(=O)[C@H](CC2CCCCC2)N(C)C(=O)CN(C)C(=O)CN(C)C1=O [Compound 337] (cyclo([Ac5c][NMeV][NMedβ3hAla][NMeL]I[Sar][Sar][NMeCha][Sar][hPhe(3-F,4-CF3)]P))
Units: nM
Readout number: 16

Compound: CC[C@H](C)[C@@H]1NC(=O)[C@H](CC(C)C)N(C)C(=O)C[C@@H](C(=O)N2CCCCC2)N(C)C(=O)[C@H](C2CCCCC2)N(C)C(=O)C2(CCCC2)NC(=O)[C@@H]2COCCN2C(=O)[C@H](CCc2ccc(C(F)(F)F)c(Cl)c2)NC(=O)CN(C)C(=O)[C@H](CC2CCCCC2)N(C)C(=O)CN(C)C(=O)CN(C)C1=O [Compound 662] ([NMeL]I[Sar][Sar][NMeCha][Sar][hPhe(3-Cl-4-CF3)][Morpholine(3S-CO)][Ac5c][NMeChg][NMeD]-Piperidide; lactam N-11)
Units: nM
Readout number: 3.2

Compound: CC[C@H](C)[C@@H]1NC(=O)[C@H](CC(C)C)N(C)C(=O)C[C@@H](C(=O)N(C)C)N(C)C(=O)[C@H]([C@@H](C)CC)N(C)C(=O)C2(CCCC2)NC(=O)[C@@H](C)NC(=O)[C@H](CCc2ccc(C(F)(F)F)c(Cl)c2)NC(=O)CN(C)C(=O)[C@H](Cc2ccc(C)cc2)N(C)C(=O)[C@@H]2CCN2C(=O)[C@H](C)N(C)C1=O [Compound 67] ([NMeL]I[NMeA][Aze][NMePhe(4-Me)][Sar][hPhe(3-Cl-4-CF3)][dA][Ac5c][NMeI][NMeD]-NMe2; lactam N-11)
Units: nM
Readout number: 8.3

Compound: CC[C@H](C)[C@@H]1NC(=O)[C@H](CC(C)C)N(C)C(=O)C[C@@H](C)NC(=O)[C@H](CC(C)C)N(C)C(=O)C(C)(C)NC(=O)[C@H](COCC(=O)NC(C)(C)C)N(C)C(=O)[C@H](CCc2ccc(C(F)(F)F)c(Cl)c2)NC(=O)CN(C)C(=O)[C@H](COCCC(C)C)N(C)C(=O)[C@@H]2CCN2C(=O)CN(CC)C1=O [Compound 1513] (cyclo([Aib][NMeL][d(β3hA)][NMeL]I[NEtG][Aze][NMeS](Isopentyl)[Sar][hPhe(3-Cl-4-CF3)][NMeS](CH2CONHtBu)))
Units: nM
Readout number: 270

# map each compound to its IC50
1. CC[C@H](C)[C@@H]1NC(=O)[C@H](C)N(C)C(=O)C[C@@H](C(=O)N2CCCCC2)N(C)C(=O)[C@H]([C@@H](C)CC)N(C)C(=O)C2(CCCC2)NC(=O)[C@@H](Cc2ccccc2)N(C)C(=O)[C@H](CCc2cc(F)c(C(F)(F)F)c(F)c2)NC(=O)CN(C)C(=O)[C@H](Cc2ccc(C)cc2)N(C)C(=O)[C@@H]2CCN2C(=O)[C@H](C)N(C)C1=O [Compound 1887] ([NMeA]I[NMeA][Aze][NMePhe(4-Me)][Sar][hPhe(3,5-F2-4-CF3)][dNMeF][Ac5c][NMeI][NMeD]-Piperidide; lactam N-11)
2. CC[C@H](C)[C@@H]1NC(=O)[C@H](CC(C)C)N(C)C(=O)C[C@@H](C(=O)N2CCCCC2)N(C)C(=O)[C@H](C2CCCCC2)N(C)C(=O)C2(CCCC2)NC(=O)[C@@H]2CCCN2C(=O)[C@H](CCc2ccc(C(F)(F)F)c(Cl)c2)NC(=O)CN(C)C(=O)[C@H](CC2CCC2)N(C)C(=O)CN(C)C(=O)CN(C)C1=O [Compound 1817] ([NMeL]I[Sar][Sar][NMeCba][Sar][hPhe(3-Cl-4-CF3)]P[Ac5c][NMeChg][NMeD]-Piperidide; lactam N-11)
3. CC[C@H](C)[C@@H]1NC(=O)[C@H](C)N(C)C(=O)C[C@@H](C(=O)N2CCCCC2)N(C)C(=O)[C@H](C(C)C)N(C)C(=O)C2(CCCC2)NC(=O)[C@@H]2CCCN2C(=O)[C@H](CCc2ccc(C(F)(F)F)c(Cl)c2)NC(=O)CN(C)C(=O)[C@H](CC2CCCCC2)N(C)C(=O)[C@@H]2CCN2C(=O)[C@H](CCC(C)C)N(C)C1=O [Compound 1595] ([NMeA]I[NMehLeu][Aze][NMeCha][Sar][hPhe(3-Cl-4-CF3)]P[Ac5c][NMeV][NMeD]-Piperidide; lactam N-11)
4. CC[C@H](C)[C@@H]1NC(=O)[C@H](C)N(C)C(=O)C[C@@H](C(=O)N2CCCC2)NC(=O)[C@H](C(C)C)N(C)C(=O)[C@H](Cc2ccccc2)N(C)C(=O)[C@H](Cc2cccc(C)c2)NC(=O)[C@H](Cc2cccc(Cl)c2)NC(=O)CN(C)C(=O)[C@H](Cc2ccc(Cl)cc2)N(C)C(=O)CN(C)C(=O)CN(C)C1=O [Compound 609] ([NMeA]I[Sar][Sar][NMePhe(4-Cl)][Sar][Phe(3-Cl)][Phe(3-Me)][NMeF][NMeV]D-Pyrrolidide; lactam N-11)

Result:
1: 180; 2: 1.4; 3: 15; 4: 110
